Listed below: Papp A→B values for each entry.
- Test: in vitro
- Test settings: human, Caco-2, pH 7.4
Expressed in ×10⁻⁶ cm/s, but write only the number.

{"Molecule": "COc1cc(CNC(=O)C2CCN([C@H](C)c3cccc4ccccc34)CC2)ccn1", "Observed property": "Papp A→B", "Reported measurement": 53}

# Papp A→B lookup, item `C[C@H](c1cccc2ccccc12)N1CCC(C(=O)NCc2cccc(F)c2)CC1`
35

# Papp A→B lookup, item COc1cc(CNC(=O)C2CCN(C(C)c3ccc(OC)c4ccccc34)CC2)ccn1 (stereo not drawn)
46

----------
- Measured target: UniProt K9N7C7
Listed below: IC50 values for each entry.

Some solved entries appear below for comparison.
{"Compound": "COc1cc(CNC(=O)C2CCN(C(C)c3ccc(OC)c4ccccc34)CC2)ccn1 (stereo not drawn) [Compound 9]", "IC50": "> 98 µM"}
{"Compound": "COc1cc(CNC(=O)C2CCN([C@H](C)c3cccc4ccccc34)CC2)ccn1 [Compound 5c]", "IC50": "> 98 µM"}

# IC50 lookup, item C[C@H](c1cccc2ccccc12)N1CCC(C(=O)NCc2cccc(F)c2)CC1 [Compound 3k]
> 98 µM

----------
- Measured target: SARS-CoV-2 PLpro (Severe acute respiratory syndrome coronavirus 2)
- Test: biochemical
- Type: binding
- Test settings: KD Exp2, SARS-CoV-2 PLpro WT
Observed property: Kd (nM)
Expressed in nM, but write only the number.

{"Molecule": "C[C@H](c1cccc2ccccc12)N1CCC(C(=O)NCc2cccc(F)c2)CC1", "Reported measurement": 2350}

# Kd lookup, item `COc1cc(CNC(=O)C2CCN([C@H](C)c3cccc4ccccc34)CC2)ccn1`
2450

# Kd lookup, item COc1cc(CNC(=O)C2CCN(C(C)c3ccc(OC)c4ccccc34)CC2)ccn1 (stereo not drawn)
1820

----------
Listed below: Kd values for each entry.
- Measured target: SARS-CoV PLpro (Severe acute respiratory syndrome coronavirus, UniProt P0C6X7)
- Test: biochemical
- Type: binding
- Test settings: KD Exp3, SARS-CoV
Expressed in nM, but write only the number.

Some solved entries appear below for comparison.
{"Molecule": "COc1cc(CNC(=O)C2CCN([C@H](C)c3cccc4ccccc34)CC2)ccn1 [Compound 5c]", "Kd / nM": 853}
{"Molecule": "C[C@H](c1cccc2ccccc12)N1CCC(C(=O)NCc2cccc(F)c2)CC1 [Compound 3k]", "Kd / nM": 686}

We next turn to a different molecule, shown below.
# Kd lookup, item COc1cc(CNC(=O)C2CCN(C(C)c3ccc(OC)c4ccccc34)CC2)ccn1 (stereo not drawn) [Compound 9]
840

----------
- Measured target: MERS-CoV PLpro (Middle East respiratory syndrome-related coronavirus, UniProt K9N7C7)
- Sequence (K9N7C7 1482-1803 limits assumed): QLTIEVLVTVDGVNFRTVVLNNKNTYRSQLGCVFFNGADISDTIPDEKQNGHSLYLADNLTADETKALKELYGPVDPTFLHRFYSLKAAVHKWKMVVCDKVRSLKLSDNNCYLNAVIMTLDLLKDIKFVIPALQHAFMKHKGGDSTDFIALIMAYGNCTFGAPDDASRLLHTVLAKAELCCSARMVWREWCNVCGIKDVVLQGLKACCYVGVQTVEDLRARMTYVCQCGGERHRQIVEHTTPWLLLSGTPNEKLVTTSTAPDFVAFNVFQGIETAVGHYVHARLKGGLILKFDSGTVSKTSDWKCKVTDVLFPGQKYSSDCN
- Test: biochemical
- Format: binding
- Test settings: read-out: KD Exp1, MERS-CoV
pKd: −log10 of the molar value.
Observed property: pKd

Some solved entries appear below for comparison.
{"Molecule": "C[C@H](c1cccc2ccccc12)N1CCC(C(=O)NCc2cccc(F)c2)CC1", "Reported measurement": "< 4.70"}
{"Molecule": "COc1cc(CNC(=O)C2CCN(C(C)c3ccc(OC)c4ccccc34)CC2)ccn1 (stereo not drawn)", "Reported measurement": "< 4.70"}

# pKd lookup, item `COc1cc(CNC(=O)C2CCN([C@H](C)c3cccc4ccccc34)CC2)ccn1`
< 4.70

Where do these numbers come from? They come from paper PMC9039177.
